Record form. Attribute: pIC50. Fill in for each entry.
tested_system: human Glycine N-Methyltransferase (GNMT) (Homo sapiens, UniProt Q14749)
Construct: purchased MyBioSource MBS636160
Sequence (Q14749 whole entry): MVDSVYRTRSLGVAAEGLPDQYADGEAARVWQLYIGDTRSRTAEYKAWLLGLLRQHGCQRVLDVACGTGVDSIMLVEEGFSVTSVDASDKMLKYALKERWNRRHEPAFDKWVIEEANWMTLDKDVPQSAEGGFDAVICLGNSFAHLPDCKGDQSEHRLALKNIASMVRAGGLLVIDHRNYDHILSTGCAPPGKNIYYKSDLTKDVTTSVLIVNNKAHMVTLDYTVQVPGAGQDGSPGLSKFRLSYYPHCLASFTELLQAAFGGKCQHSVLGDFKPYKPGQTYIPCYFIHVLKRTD
method: HTRF methyltransferase selectivity assay, human GNMT
Type: biochemical
measurement_setup: HTRF, SAM 10 µM, glycine 5 mM; read-out: IC50 Human (hMtase, human glycine N-methyltransferase)
One number for each entry, as −log10 of the molar value.

// input: 4 compounds below; output: pIC50 for each
1. Cc1nc(O)cc(CNc2nc3c(c(=O)[nH]2)Cc2ccccc2OC3)n1
2. CSC[C@H]1O[C@@H](n2cnc3c(N)ncnc32)[C@H](O)[C@@H]1O
3. CCNC(=O)NCCSC[C@H]1O[C@@H](n2cnc3c(N)ncnc32)[C@H](O)[C@@H]1O
4. Nc1ncnc2c1ncn2[C@@H]1O[C@H](COC(=O)c2ccc(S(=O)(=O)F)cc2)[C@@H](O)[C@H]1O

Return:
4.28
5.74
5.24
4.60

Each compound below has a reported value. Please supply its pIC50.
1. Cc1ccc(S(=O)(=O)OC[C@H]2O[C@@H](n3cnc4c(N)ncnc43)[C@H](O)[C@@H]2O)cc1
2. Nc1ncnc2c1ncn2[C@@H]1O[C@H](C(=O)N2CCN(CC(=O)Nc3cccc4c3CNC4=O)CC2)[C@@H](O)[C@H]1O

Return:
1. 5.55
2. 4.64

---

tested_system: human Glycine N-Methyltransferase (GNMT) (Homo sapiens)
Construct: purchased MyBioSource MBS636160
method: HTRF methyltransferase selectivity assay, human GNMT
Format: biochemical
quantity_measured: pIC50
Give bare numbers, as −log10 of the molar value.

Recorded pIC50, per entry:
O=C(Cc1csc(SCC(=O)c2ccccc2)n1)Nc1cccc2nsnc12 [ZINC38661771] ... 4.24
Nc1ncnc2c1ncn2[C@@H]1O[C@H](CSCC[C@H](N)C(=O)O)[C@@H](O)[C@H]1O [S-(5′-Adenosyl)-L-homocysteine (SAH), S-(5′-Adenosyl)-L-homocysteine, reference compound] ... 5.77

# batch: return pIC50 for each of the 2 compounds below
1. O=C(CCCn1cncn1)N1CCCC(c2nc3ccccc3s2)C1 (stereo not shown) [ZINC23398144]
2. O=C(Cn1c(=O)[nH]c2c(-c3ccccc3)c[nH]c2c1=O)NCc1cccnc1 [ZINC33037945]

Return:
3.50
3.90

---

tested_system: human Glycine N-Methyltransferase (GNMT) (Homo sapiens, UniProt Q14749)
Construct: purchased MyBioSource MBS636160
method: HTRF methyltransferase selectivity assay, human GNMT
Type: biochemical
measurement_setup: 100 μM
Given measured Percent inhibition at 100 μM, Human, output rule met if it is greater than or equal to 80% and rule not met if not.

Observe how each entry below is paired with its result.
Nc1ncnc2c1ncn2[C@@H]1O[C@H](C(=O)N2CCN(CC(=O)Nc3cccc4c3CNC4=O)CC2)[C@@H](O)[C@H]1O ... rule met
Cc1cc(=O)[nH]c(NCCNC(=O)c2cc(-c3cccn3C)n[nH]2)n1 ... rule not met
O=C(Cn1ccc(=O)c2ccccc21)NCCSc1cnn[nH]1 ... rule not met
O=C(CCCn1cnc2ccccc2c1=O)Nc1ccc2ncnc(O)c2c1 ... rule met

Consider now this further molecule.
Enquiry: Textbook exercise: given the entry NC1=NC(c2ccccc2)n2c(nc(=O)c3ccccc32)N1 (centres unmarked) , state whether its Percent inhibition at 100 μM, Human is greater than or equal to 80%.
Return: rule not met
